Quick list: half-life at 1 μM per entry.
# EXPERIMENTAL PROTOCOL: In vitro brain homogenate stability, rat
# Format: in vitro ADME
# RUN PARAMETERS: 37° C., test compound at 1 μM, read-out: Rat t1/2
The figure you give is taken to be in min; do not add the unit.

Which half-life at 1 μM value is on record for CCCCC/C=C\C/C=C\C/C=C\C/C=C\CCCC(=O)NCCOP(=O)(O)OCCN ?
76

Follow-up item: CCCCC/C=C\C/C=C\C/C=C\C/C=C\CCCC(=O)NCCOP(=O)(O)OCC(N)C(=O)O (centres unmarked)
126

* * *

# EXPERIMENTAL PROTOCOL: In vitro brain homogenate stability, mouse
# Assay type: in vitro ADME
# RUN PARAMETERS: 37° C., test compound at 1 μM, read-out: Mouse t1/2
ENDPOINT NAME: half-life at 1 μM (h)
The figure you give is taken to be in h; do not add the unit.

CCCCC/C=C\C/C=C\C/C=C\C/C=C\CCCC(=O)NCCOP(=O)(O)OCC(N)C(=O)O (centres unmarked) [Compound 5]    4.3

# evaluate next
Which half-life at 1 μM value is on record for CCCCC/C=C\C/C=C\C/C=C\C/C=C\CCCC(=O)NCCOP(=O)(O)OCCN [Compound 4] ?
2
